Test: Antiproliferative activity against human MESSA cells by SRB assay
Format: functional
Conditions: MES-SA
Catalogue of log10 GI50 values
Base-10 log of GI50, unit nM.

compound=COc1cc2c3c(cc4cc5c(cc4c3c1OC)OCO5)N(C)C2=O value_observed=4.43
compound=COc1c(O)cc2c3c(cc4ccccc4c13)N(C)C2=O value_observed=4.38
compound=COc1cc2c3c(cc4ccccc4c3c1OC)N(C)C2=O value_observed=3.58

// next entry
The compound identified as CN1C(=O)c2cccc3c2c1cc1ccccc13 registered its log10 GI50 at 3.26

---

Assay: Antiproliferative activity against human MESSA cells by SRB assay
Assay type: functional
Details: MES-SA
Outcome Measure: GI50 (nM)
Give the value in nM but do not write nM after it.

Recorded GI50, per entry:
smi=COc1cc2cc3c4c(cc(OC)c(OC)c4c2cc1OC)C(=O)N3CCN(C)C value_observed=390
smi=COc1cc2c3c(cc4cc(Cl)ccc4c3c1OC)N(CCN1CCCCC1)C2=O value_observed=590
smi=COc1cccc2c1C(=O)c1c(O)c3c(c(O)c1C2=O)C[C@@](O)(C(=O)CO)C[C@@H]3O[C@H]1C[C@H](N)[C@H](O)[C@H](C)O1 value_observed=5.1
smi=COc1cc2cc3c4c(cc(OC)c(OC)c4c2cc1OC)C(=O)N3C value_observed=1050

The compound identified as COc1ccc2c(c1)cc1c3c(cc(OC)c(OC)c32)C(=O)N1C registered its GI50 at 1220

The compound identified as COc1cc2c3c(cc4ccccc4c3c1O)N(C)C2=O registered its GI50 at 14500

---

Catalogue of GI50 values
Experiment: Antiproliferative activity against human MESSA cells by SRB assay
Type: functional
Settings: MES-SA
Give the value in nM but do not write nM after it.

compound="COc1cc([C@@H]2c3cc4c(cc3[C@@H](O[C@@H]3O[C@@H]5CO[C@@H](C)O[C@H]5[C@H](O)[C@H]3O)[C@H]3COC(=O)[C@H]23)OCO4)cc(OC)c1O [ETOPOSIDE]" unit_info=nM value_observed=210

The compound identified as COc1cc2c3c(cc4ccccc4c3c1OC)N(CCN1CCCCC1)C2=O registered its GI50 at 1460

The compound identified as COc1ccc2cc3c4c(cc(OC)c(OC)c4c2c1)C(=O)N3 registered its GI50 at 2700

---

Assay: Antiproliferative activity against human MESSA cells by SRB assay
Type: functional
Conditions: MES-SA
Outcome Measure: GI50

Recorded GI50, per entry:
smi=COc1cc2c3c(cc4ccccc4c3c1OC)NC2=O outcome_measure=GI50 value_observed="> 30 µM"
smi=COc1cc2c3c(cc4ccc(C)cc4c3c1OC)N(C)C2=O outcome_measure=GI50 value_observed="> 30 µM"

// next entry
The molecule identified as COc1cc2c3c(cc4c5c(ccc4c3c1OC)OCO5)N(CCN(C)C)C2=O registered its GI50 at < 0.0001 µM

---

Test: Antiproliferative activity against human MESSA cells by SRB assay
Format: functional
Conditions: MES-SA
Catalogue of GI50 values

Recorded GI50, per entry:
smi=CC(=O)O[C@H]1C(=O)[C@@]2(C)[C@H]([C@H](OC(=O)c3ccccc3)[C@]3(O)C[C@H](OC(=O)[C@H](O)[C@@H](NC(=O)c4ccccc4)c4ccccc4)C(C)=C1C3(C)C)[C@]1(OC(C)=O)CO[C@@H]1C[C@@H]2O outcome_measure=GI50 value_observed="< 1e-05 µM"
smi=COc1cc2c3c(cc4ccccc4c3c1O)NC2=O outcome_measure=GI50 value_observed="> 30 µM"
smi=COc1cc2c3c(cc4c5c(ccc4c3c1OC)OCO5)N(CCN1CCCCC1)C2=O outcome_measure=GI50 value_observed="< 0.1 µM"

// next entry
The compound identified as COc1cc2c3c(cc4cc(Cl)ccc4c3c1OC)N(C)C2=O registered its GI50 at > 30 µM
